So I've got a bunch of compounds here, and I need their Plant response rating, Barnyardgrass values.
Tested on: barnyardgrass (Echinochloa crus-galli)
EXPERIMENT: Test B pre-/postemergence plant response
Type: in vivo
EXPERIMENTAL CONTEXT: Preemergence, 125 g ai/ha; 0 to 100 scale where 0 is no effect and 100 is complete control

Solved entries (count: 4):
{"CHEM SMILES": "Cn1nnnc1-c1ccccc1Oc1ncc(Br)cn1", "RESULT": 0}
{"CHEM SMILES": "Cn1nnnc1-c1ccccc1Oc1ncc(Cl)cn1", "RESULT": 0}
{"CHEM SMILES": "Cn1ccc(-c2ccccc2Oc2ncc(Cl)cn2)n1", "RESULT": 0}
{"CHEM SMILES": "Cn1nnc(-c2ccccc2Oc2ncc(Cl)cn2)n1", "RESULT": 0}

# per-item lookup of Plant response rating, Barnyardgrass; items listed below
1. Clc1cnc(Oc2ccccc2-c2nnc(C3CC3)o2)nc1
2. Cc1nnc(-c2ccccc2Oc2ncc(Cl)cn2)o1
3. CC(C)(C)c1cc(-c2ccccc2Oc2ncc(Cl)cn2)no1
4. CC(C)n1nc(C(F)(F)F)cc1-c1c(C#N)cccc1Oc1ncc(Cl)cn1

1. 0
2. 0
3. 0
4. 0

# per-item lookup of Plant response rating, Barnyardgrass; items listed below
1. COc1cccc(Oc2ncc(F)cn2)c1-c1cc(C)no1
2. Cc1cc(-c2ccccc2Oc2ncc(Cl)cn2)no1
3. Fc1cc(F)c(-c2cc(C(F)F)no2)c(Oc2ncc(Cl)cn2)c1
4. Cc1cc(-c2ccccc2Oc2ncc(Cl)cn2)on1
5. Fc1ccc(Oc2ncc(Cl)cn2)c(-c2cc(C(F)F)on2)c1Br
6. Cn1cnc(-c2ccccc2Oc2ncc(Cl)cn2)n1

20
80
0
60
20
0

Return reported Plant response rating, Barnyardgrass; argument: "FC(F)(F)c1ccc(-c2ccccc2Oc2ncc(Br)cn2)nc1"
0

====

Test system: Italian ryegrass (Lolium multiflorum)
EXPERIMENT: Test B pre-/postemergence plant response
Format: in vivo
EXPERIMENTAL CONTEXT: 125 g ai/ha, postemergence; 0 to 100 scale, 0 no effect, 100 complete control
RECORDED ENDPOINT: Plant response rating, Ryegrass, Italian
Numbers only.

# per-item lookup of Plant response rating, Ryegrass, Italian; items listed below
1. Fc1cccc(Oc2ncc(Cl)cn2)c1-c1cc(C(F)(F)F)on1
2. N#Cc1cc(-c2c(F)cccc2Oc2ncc(Cl)cn2)no1
3. CC(F)(F)c1cc(-c2ccccc2Oc2ncc(Br)cn2)no1
4. Cn1nncc1-c1ccccc1Oc1ncc(Cl)cn1
5. COc1cccc(Oc2ncc(Cl)cn2)c1-c1cc(C(F)(F)F)no1
6. FC(F)Oc1cccc(Oc2ncc(Cl)cn2)c1-c1cc(C(F)F)no1

1: 90; 2: 0; 3: 20; 4: 0; 5: 30; 6: 40

# per-item lookup of Plant response rating, Ryegrass, Italian; items listed below
1. CCOC(=O)c1cc(-c2ccccc2Oc2ncc(Cl)cn2)on1
2. Fc1ccc(Oc2ncc(Cl)cn2)c(-c2cc(C(F)F)on2)c1Cl

0
60

# per-item lookup of Plant response rating, Ryegrass, Italian; items listed below
1. Clc1cnc(Oc2ccccc2-c2ccsc2)nc1
2. COc1cccc(Oc2ncc(Cl)cn2)c1-c1cc(C)no1

0
0

====

System: large (Lg) crabgrass (Digitaria sanguinalis)
EXPERIMENT: Test D pre-/postemergence plant response
Format: in vivo
EXPERIMENTAL CONTEXT: Postemergence, 16 g ai/ha; scale 0 to 100 (0 no effect, 100 complete control)
RECORDED ENDPOINT: Crabgrass, Large plant response rating

{"CHEM SMILES": "Fc1cccc(Oc2ncc(Cl)cn2)c1-c1cc(C2CC2)on1", "Crabgrass, Large plant response rating": 10}
{"CHEM SMILES": "CC(F)(F)c1cc(-c2ccccc2Oc2ncc(Br)cn2)no1", "Crabgrass, Large plant response rating": 5}
{"CHEM SMILES": "FC(F)(Br)c1cc(-c2ccccc2Oc2ncc(Cl)cn2)no1", "Crabgrass, Large plant response rating": 5}

# per-item lookup of Crabgrass, Large plant response rating; items listed below
1. FC(F)(F)c1cc(-c2c(Br)cccc2Oc2ncc(Cl)cn2)no1
2. FC(F)c1cc(-c2c(Cl)cccc2Oc2ncc(Cl)cn2)on1
3. N#Cc1cccc(Oc2ncc(Cl)cn2)c1-c1cc(C(F)(F)F)on1
4. Fc1ccc(Oc2ncc(Cl)cn2)c(-c2cc(C(F)F)on2)c1Cl

[5, 30, 5, 5]

Return reported Crabgrass, Large plant response rating; argument: "Fc1cccc(Oc2ncc(Br)cn2)c1-c1cc(C(F)F)on1"
10

From: patent US10131652B2
